- TARGET: IRAK4 kinase (Homo sapiens (Human), UniProt Q9NWZ3)
- Sequence (Q9NWZ3 whole entry): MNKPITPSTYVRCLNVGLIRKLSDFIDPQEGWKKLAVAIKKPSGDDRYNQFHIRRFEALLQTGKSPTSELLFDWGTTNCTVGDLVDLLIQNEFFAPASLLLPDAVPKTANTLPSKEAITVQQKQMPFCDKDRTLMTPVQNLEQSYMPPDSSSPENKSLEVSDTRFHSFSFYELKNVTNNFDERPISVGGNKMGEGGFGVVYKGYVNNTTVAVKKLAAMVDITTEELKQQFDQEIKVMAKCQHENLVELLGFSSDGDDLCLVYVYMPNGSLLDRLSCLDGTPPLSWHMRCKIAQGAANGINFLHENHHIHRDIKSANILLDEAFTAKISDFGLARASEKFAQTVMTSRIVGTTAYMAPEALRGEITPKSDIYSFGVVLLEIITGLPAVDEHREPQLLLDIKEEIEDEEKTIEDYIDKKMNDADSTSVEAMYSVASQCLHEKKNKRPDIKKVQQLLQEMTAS
Assignment: determine reported IC50 for the given molecules.

Query block: Consider the molecule COCCCn1ccc2nc(Nc3cc(C)ns3)nc(N[C@H]3CC[C@H](N4CCCCC4)CC3)c21 and give its measured IC50.
Result block: ≤ 100 nM

Query block: Similarly, C[C@]1(O)CC[C@H](Nc2nc(Nc3cc(C(=O)N[C@H]4CCNC4)cs3)nc3ccsc23)CC1 ?
Result block: ≤ 100 nM

Query block: Similarly, Cc1cc(Nc2nc(N[C@@H]3C[C@H](CO)[C@@H](O)[C@H]3O)c3sccc3n2)sn1 ?
Result block: ≤ 100 nM

Query block: Similarly, COc1cc(Nc2nc(N[C@H]3CC[C@](C)(O)CC3)c3sccc3n2)ccn1 ?
Result block: 100 to 1000 nM

Query block: Similarly, Cc1cc(Nc2nc(N[C@H]3CC[C@H](O)CC3)c3sccc3n2)on1 ?
Result block: 100 to 1000 nM

Query block: Similarly, Cc1cc(Nc2nc(O[C@H]3CC[C@@H](N)CC3)c3sccc3n2)sn1 ?
Result block: 100 to 1000 nM

Query block: Similarly, COCCNC(=O)c1cc(Nc2nc(N[C@H]3CC[C@](C)(O)CC3)c3sccc3n2)sn1 ?
Result block: 100 to 1000 nM

Query block: Similarly, O[C@H]1CC[C@H](Nc2nc(Nc3cnn(-c4cccc(N5CCOCC5)c4)c3)nc3ccsc23)CC1 ?
Result block: 100 to 1000 nM

Query block: Similarly, Cc1cc(Nc2nc(N[C@H]3C[C@H](N)C3)c3sccc3n2)sn1 ?
Result block: ≤ 100 nM

Query block: Similarly, C[C@]1(O)CC[C@H](Nc2nc(Nc3cc(C(=O)N[C@@H]4CCNC4)ns3)nc3ccsc23)CC1 ?
Result block: ≤ 100 nM

Query block: Similarly, O[C@H]1CC[C@H](Nc2nc(Nc3cnn(-c4ccc(N5CCOCC5)cc4)c3)nc3ccsc23)CC1 ?
Result block: 100 to 1000 nM

Query block: Similarly, CN1CCN(C(=O)c2cc(Nc3nc(N[C@H]4CC[C@H](O)CC4)c4sccc4n3)sn2)CC1 ?
Result block: 100 to 1000 nM

Query block: Similarly, C[C@]1(O)CC[C@H](Nc2nc(Nc3cc(C(=O)NC4CCOCC4)ns3)nc3ccsc23)CC1 ?
Result block: ≤ 100 nM

Query block: Similarly, Cc1cc(Nc2nc(N[C@H]3CC[C@H](N4CCCCC4)CC3)c3sccc3n2)sn1 ?
Result block: ≤ 100 nM

Query block: Similarly, C[C@]1(O)CC[C@H](Nc2nc(Nc3cccc(CC(N)=O)c3)nc3ccsc23)CC1 ?
Result block: 1000 to 10000 nM

Query block: Similarly, Cc1cc(Nc2nc(O[C@H]3CC[C@H](N4CCCC4)CC3)c3sccc3n2)sn1 ?
Result block: ≤ 100 nM
